The origin of these recorded values is ChEMBL document CHEMBL1909046.

Assay: DRUGMATRIX: Purinergic P2X radioligand binding (ligand: [3H] alpha, beta-Methylene-ATP)
Type: cell membranes, Oryctolagus cuniculus, New Zealand albino, Urinary bladder, Membrane
Details: Not Active = under 50% inhibition at 10 µM
endpoint-name: IC50

INSERT INTO assay_data (compound, observed) VALUES
  ('Oc1c(Cl)cc(Cl)c(Cl)c1Cc1c(O)c(Cl)cc(Cl)c1Cl', 'Not Active'),
  ('O=C1O[C@H]([C@@H](O)CO)C(O)=C1O', 'Not Active'),
  ('CC[C@H]1CN2CCc3cc(OC)c(OC)cc3[C@@H]2C[C@@H]1C[C@H]1NCCc2cc(OC)c(OC)cc21', 'Not Active'),
  ('COC1=C(OC)C(=O)C(CCCCCCCCCCO)=C(C)C1=O', 'Not Active'),
  ('CCCNCC(O)COc1ccccc1C(=O)CCc1ccccc1 (centres undefined)', 'Not Active'),
  ('Cc1nnc2n1-c1ccc(Cl)cc1C(c1ccccc1)=NC2', 'Not Active'),
  ('Cc1cccc(C)c1OCC(C)N (centres undefined)', 'Not Active'),
  ('CCC(=O)O[C@]1(C(=O)CCl)[C@@H](C)C[C@H]2[C@@H]3CCC4=CC(=O)C=C[C@]4(C)[C@@]3(F)[C@@H](O)C[C@@]21C [CLOBETASOL PROPIONATE]', 'Not Active'),
  ('COc1ccc2cc3[n+](cc2c1OC)CCc1cc2c(cc1-3)OCO2.[Cl-] [BERBERINE CHLORIDE]', 'Not Active'),
  ('CC1(C)S[C@@H]2[C@H](NC(=O)[C@H](N)c3ccccc3)C(=O)N2[C@H]1C(=O)O', 'Not Active'),
  ('CO[C@@H]1[C@@H](OC)[C@H](C)[C@@](O)(CC(=O)O)O[C@H]1[C@H](C)[C@H]1O[C@@]2(CC[C@@](C)([C@H]3CC[C@@](C)([C@@H]4O[C@@H]([C@H]5O[C@](C)(O)[C@H](C)C[C@@H]5C)C[C@@H]4O[C@@H]4C[C@H](OC)[C@@H](OC)[C@H](C)O4)O3)O2)C[C@H](O)[C@H]1C', 'Not Active'),
  ('NC1CCN(c2nc3c(cc2F)c(=O)c(C(=O)O)cn3-c2ccc(F)cc2F)C1 (centres undefined)', 'Not Active'),
  ('NNc1nncc2ccccc12 [HYDRALAZINE]', 'Not Active'),
  ('CC[C@@H](C(=O)[C@@H](C)[C@@H](O)[C@H](C)[C@@H]1O[C@@H]([C@@H](CC)C(=O)O)CC[C@@H]1C)[C@H]1O[C@]2(C=C[C@@H](O)[C@]3(CC[C@@](C)([C@H]4CC[C@](O)(CC)[C@H](C)O4)O3)O2)[C@H](C)C[C@@H]1C', 'Not Active');
